Species on record: Rattus norvegicus
experimental protocol: Open TG-GATES - Regimen: Single
Format: toxicity, organism-based, Sprague-Dawley
Parameters: regimen Single, gender Male, age 6 weeks
experimental conditions: in vivo, po, 0 mg/kg, 9 h, tissue Blood, route gavage, dose level Control
Quick list: Bas per entry.
Please respond with the number in % and leave the unit unwritten.

# molecule, observed property, observed result
records = [
    ("COC(=O)C1=C(C)NC(C)=C(C(=O)OC)C1c1ccccc1[N+](=O)[O-] [NIFEDIPINE]", "Bas", 0),
    ("CC(C)NNC(=O)c1ccncc1 [IPRONIAZID]", "Bas", 0),
    ("CS(=O)(=O)O.Cc1ccc(NC(=O)c2ccc(CN3CCN(C)CC3)cc2)cc1Nc1nccc(-c2cccnc2)n1 [IMATINIB MESYLATE]", "Bas", 0),
]

Now for the molecule whose Bas we want.
[in] Give Bas for O=C(OC[C@H]1O[C@@H](OC(=O)c2cc(O)c(O)c(OC(=O)c3cc(O)c(O)c(O)c3)c2)[C@H](OC(=O)c2cc(O)c(O)c(OC(=O)c3cc(O)c(O)c(O)c3)c2)[C@@H](OC(=O)c2cc(O)c(O)c(OC(=O)c3cc(O)c(O)c(O)c3)c2)[C@@H]1OC(=O)c1cc(O)c(O)c(OC(=O)c2cc(O)c(O)c(O)c2)c1)c1cc(O)c(O)c(OC(=O)c2cc(O)c(O)c(O)c2)c1 [TANNIC ACID]
[out] 0
